Test: doxorubicin toxicity protection in MRP-1 cells – H69AR cells, CellTiter-Glo, duplicate, MRP-1 activator project, pilot screen (AID 807);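 further: compound pretreatment 18-22 h then 72 h combined with doxorubicin; 0% = doxorubicin alone and 100% = vehicle without doxorubicin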
Conditions: H69AR viability with doxorubicin, CellTiter-Glo luminescence; at 10 µM; active compounds read high
What viability increase was measured for each of the following?
Number only, in %; omit the unit.

## Input What measured viability increase goes with "CCOc1ccc(N(CC(=O)OC)S(=O)(=O)c2ccc(OC)c(OC)c2)cc1" ?
## Output -0.96

## Input What measured viability increase goes with "Cn1cccc1Cc1nnc(SCC(=O)Nc2nccs2)n1CCc1ccccc1" ?
## Output -2.32

## Input What measured viability increase goes with "Cc1nn(C(=O)c2ccc3c(c2)OCO3)c(N)c1-c1ccccc1" ?
## Output -2.76

## Input What measured viability increase goes with "COc1ccc(-c2nc(CSCC(=O)N3CCc4ccccc4C3)c(C)o2)cc1OC" ?
## Output -3.15

## Input What measured viability increase goes with "O=C1CCC/C1=c1\s/c(=C\c2cccnc2)c(=O)n1-c1ccccc1" ?
## Output -5.83

## Input What measured viability increase goes with "COCc1cc(C)nc(N2CCOCC2)c1C#N" ?
## Output -0.86

## Input What measured viability increase goes with "COc1cccc2cc(C(=O)OC3CCN(C)CC3)c(=O)oc12" ?
## Output -3.68

## Input What measured viability increase goes with CC1Cc2ccccc2N1C(=O)C12CCC(C)(C(=O)C1)C2(C)C (centres undefined) ?
## Output -0.66

## Input What measured viability increase goes with "Cc1ccc(NC(=O)CNS(=O)(=O)c2cccs2)cc1F" ?
## Output 1.44

====

Assay: viability of HCT116 without oncogenic beta-catenin – human colon tumor cells, pilot screen (AID 823);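 further: 0% = wells killed by 20 µM Hyamine and 100% = untreated DMSO cell wells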
Conditions: HCT116 beta-catenin knockout viability, CellTiter-Glo, 60 h; at 10 µM; active compounds read low
Results filed as inconclusive are left out.
What viability was measured for each of the following?
Number only, in %; omit the unit.

## Input What measured viability goes with CC(=O)NC(C)C(=O)OCC(=O)Nc1ccc(Br)cc1 (stereo not drawn) ?
## Output 99.7

## Input What measured viability goes with "CCOC(=O)C1CCN(Cc2ccc(F)c(Br)c2)CC1" ?
## Output 90.4

## Input What measured viability goes with "N#Cc1cc2c(nc1SCC(=O)N1CCCCC1)CCCC2" ?
## Output 93

## Input What measured viability goes with "O=C(O)c1ccc(-c2ccc(O)c(F)c2)cc1" ?
## Output 99.3

## Input What measured viability goes with "CC(C)Sc1nnc(Cn2c(=O)sc3ccccc32)n1-c1ccccc1" ?
## Output 87.1

## Input What measured viability goes with CCOC(=O)CC1C(=O)NCCN1Cc1cccc(OC)c1 (stereo not drawn) ?
## Output 100

## Input What measured viability goes with COc1ccccc1C(=O)NC(C)c1nc2ccccc2[nH]1 (stereo not drawn) ?
## Output 99

## Input What measured viability goes with "O=C(COc1ccc(F)cc1)Nc1ccc(-n2cnnn2)cc1" ?
## Output 102

## Input What measured viability goes with COc1ccc(OC)c2sc(NC(=O)C3COc4ccccc4O3)nc12 (stereo not drawn) ?
## Output 101

## Input What measured viability goes with "Cc1cc2cc(CCNC(=O)CC(C)C)c(=O)[nH]c2cc1C" ?
## Output 104

## Input What measured viability goes with CC(C)(C)NC(=O)c1cnn2c1NC(c1ccc(F)cc1)CC2C(F)(F)F (stereo not drawn) ?
## Output 89.5

## Input What measured viability goes with "CCc1cccc(NC(=O)CCS(=O)(=O)c2cccc3nonc23)c1" ?
## Output 93.8

## Input What measured viability goes with "COc1ccccc1S(=O)(=O)Cc1ccc(C(=O)N2CCN(c3ccccn3)CC2)o1" ?
## Output 92.8

## Input What measured viability goes with "CCOC(=O)Nc1sc(NS(=O)(=O)c2ccccc2)nc1C" ?
## Output 105

## Input What measured viability goes with "COc1ccc(NC(=O)CSc2nnc(Cc3cccn3C)n2-c2ccc(F)cc2)cc1OC" ?
## Output 94.5

## Input What measured viability goes with COC(=O)Cn1c(=O)c2c(nc3n2CC(C)CN3c2ccc(C)c(C)c2)n(C)c1=O (stereo not drawn) ?
## Output 97.9

## Input What measured viability goes with COC(=O)C1=C(C)Nc2nnnn2C1c1ccc(Cl)cc1Cl (stereo not drawn) ?
## Output 98

## Input What measured viability goes with "CCOC(=O)N1CCC(Nc2ccc3nnc(-c4ccccc4)n3n2)CC1" ?
## Output 69.4

====

Assay: viability of HCT116 without oncogenic beta-catenin – human colon tumor cells, pilot screen (AID 823);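 further: 0% = wells killed by 20 µM Hyamine and 100% = untreated DMSO cell wells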
Conditions: HCT116 beta-catenin knockout viability, CellTiter-Glo, 60 h; at 10 µM; active compounds read low
Results filed as inconclusive are left out. Activity calls are given as the source filed them.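 How the source made its calls: active means cell viability at or below a set limit in both duplicate runs, the limit being the all-compound median minus 4 SD (cut at about 23% in these data, passing the limit was not always enough); inconclusive means no clear call, values can overlap the other calls; inactive means the rest.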
What viability was measured for each of the following?

## Input What measured viability goes with CC(CCc1ccco1)NC(=O)Cn1ncc2c1-c1ccccc1OC2 (configuration not stated) ?
## Output 101% (inactive)

## Input What measured viability goes with "CCn1cc(C(=O)NCCC2=CCCCC2)c(=O)c2cc(S(=O)(=O)N(C)C)ccc21" ?
## Output 86.4% (inactive)

## Input What measured viability goes with "CC(=O)N(C(C)=O)c1ncc2c([nH]c3ccccc32)c1C#N" ?
## Output 66.9% (inactive)

## Input What measured viability goes with NC(=O)c1ccc(N2CCCCC2)c(N2C(=O)C3C4C=CC(C4)C3C2=O)c1 (configuration not stated) ?
## Output 101% (inactive)

## Input What measured viability goes with CCOC(=O)C(C)Sc1nnc(Cc2cc(=O)[nH]c(=O)[nH]2)n1-c1ccc(Cl)cc1 (configuration not stated) ?
## Output 104% (inactive)

## Input What measured viability goes with "O=C(NCCCN1CCOCC1)c1ccco1" ?
## Output 98.8% (inactive)

## Input What measured viability goes with "COC(=O)c1oc2ccc(Br)cc2c1NC(=O)CCCN1C(=O)c2ccccc2C1=O" ?
## Output 97.7% (inactive)

## Input What measured viability goes with CC1CCN(c2c(NCc3ccc(C(=O)N4c5ccccc5CC4C)cc3)c(=O)c2=O)CC1 (configuration not stated) ?
## Output 72.1% (inactive)

## Input What measured viability goes with O=C1CCC(C(=O)NC2(C(=O)NC3CCCCC3)CCCCC2)N1 (configuration not stated) ?
## Output 99.6% (inactive)

## Input What measured viability goes with COc1cc(NC(=O)C2CCCN2S(=O)(=O)c2ccc3c(c2)CCC(=O)N3)cc(OC)c1 (configuration not stated) ?
## Output 97.7% (inactive)

## Input What measured viability goes with "COc1cc(OC)cc(C(=O)Nc2cccc(NC(C)=O)c2)c1" ?
## Output 111% (inactive)

## Input What measured viability goes with "Cc1ccccc1-n1c(Cn2c(=O)sc3ccccc32)nnc1SC(C)C" ?
## Output 84% (inactive)

## Input What measured viability goes with "COc1cc(NC(=O)c2ccc(S(=O)(=O)N(C)C)cc2)cc(OC)c1OC" ?
## Output 92.9% (inactive)

## Input What measured viability goes with Cc1ccc(C2CC(c3cccc(C)c3)n3ncnc3N2)cc1 (configuration not stated) ?
## Output 85.7% (inactive)

## Input What measured viability goes with "O=C(NC1CCN(Cc2ccccc2)CC1)C1CCN(S(=O)(=O)c2cccc3cccnc23)CC1" ?
## Output 88.3% (inactive)

## Input What measured viability goes with "COc1ccccc1N(CC(=O)Nc1cccnc1)S(C)(=O)=O" ?
## Output 103% (inactive)

## Input What measured viability goes with "COc1ccc(OCc2nc(C#N)c(N3CCN(c4ccc(OC)cc4)CC3)o2)cc1" ?
## Output 72.5% (inactive)

## Input What measured viability goes with "COc1ccc(C)cc1NC(=O)CNC(=O)Cn1ccc2ccccc2c1=O" ?
## Output 89% (inactive)

## Input What measured viability goes with "COc1ccc(N(C)C(=O)c2ccc3snnc3c2)cc1" ?
## Output 105% (inactive)

## Input What measured viability goes with CCN(CC)C1CCCCC1NS(=O)(=O)c1ccc(Cl)cc1 (configuration not stated) ?
## Output 86.5% (inactive)

## Input What measured viability goes with "O=c1[nH]c(SCc2ccc(F)cc2)nc2c1cnn2-c1ccc(F)cc1" ?
## Output 39.8% (inactive)

## Input What measured viability goes with "COCCNC(=O)CN1C(=O)CSc2ncccc21" ?
## Output 102% (inactive)

## Input What measured viability goes with "Cc1n[nH]c(C)c1N1C(=O)c2cccc3cc(Br)cc(c23)C1=O" ?
## Output 107% (inactive)

## Input What measured viability goes with "CCOc1ccc(-n2nnc3c(=O)n(CC(=O)c4ccccc4)cnc32)cc1" ?
## Output 101% (inactive)

## Input What measured viability goes with "CCCC(=O)Nc1nc2ccc(S(N)(=O)=O)cc2s1" ?
## Output 99.4% (inactive)

## Input What measured viability goes with "CC(=O)NCCc1nc2ccccc2[nH]1" ?
## Output 107% (inactive)

## Input What measured viability goes with CCC(C)NC(=O)CS(=O)Cc1nc(-c2cccc(C)c2)oc1C (configuration not stated) ?
## Output 99.4% (inactive)

## Input What measured viability goes with "O=C(Cn1c(=O)oc2cc(S(=O)(=O)N3CCCCCC3)ccc21)NC1CCCCCCC1" ?
## Output 95.2% (inactive)

## Input What measured viability goes with "O/N=C1/CCc2cccc3cccc1c23" ?
## Output 96.1% (inactive)

## Input What measured viability goes with "COc1ccc(-c2cc(C(F)(F)F)n3nc(C)cc3n2)cc1" ?
## Output 96.2% (inactive)

## Input What measured viability goes with "COc1ccc(S(=O)(=O)N2CCN(C)CC2)c2ccccc12" ?
## Output 102% (inactive)

## Input What measured viability goes with "Cc1ccc(C)n1-c1ccc(N2CCOCC2)cc1" ?
## Output 8.5% (active)

## Input What measured viability goes with "CCOc1ccc(NC(=O)c2cnc3scc(C)n3c2=O)cc1" ?
## Output 101% (inactive)

## Input What measured viability goes with CC(CCc1ccccc1)NC(=O)C1CCCN(c2nnc(-n3cccc3)s2)C1 (configuration not stated) ?
## Output 93.5% (inactive)

## Input What measured viability goes with COc1ccc(C2N(c3ccc(OC)cc3)C(=O)C3CCCN32)cc1 (configuration not stated) ?
## Output 106% (inactive)

## Input What measured viability goes with "Cc1cc(NS(=O)(=O)c2ccc(NC(=O)COc3ccccc3C(C)C)cc2)no1" ?
## Output 93.6% (inactive)

## Input What measured viability goes with "N#Cc1c(-c2ccco2)c2c([nH]c1=S)CCCC2" ?
## Output 105% (inactive)
